These data points were gathered from ChEMBL document CHEMBL1142361.

Assay method text: Bioavailability in dog at 1 mg/kg, po
Format: ADME, organism-based, Canis lupus familiaris
Condition label: in vivo
Experimental readout: bioavailability (%)
Respond with the bare value in %.

Exercise: Please look up its bioavailability: CNC(=O)C(N)c1ccc(C(=O)Nc2cc(-c3cccs3)ccc2N)cc1 (stereo unspecified)
Key: 17

----------
Assay method text: Drug level in HCT116 cells xenografted mouse plasma at ip qd after 2 hrs on day 21
Experimental readout: concentration at 2 h (µM)
# output: bare number, implied unit µM

Exercise: Using the record for CNC(=O)C(N)c1ccc(C(=O)Nc2cc(-c3cccs3)ccc2N)cc1 (stereo unspecified) , report its concentration at 2 h.
Key: 17.9

----------
Assay method text: Half life in rat at 2 mg/kg, iv and 4 mg/kg, po
Assay type: ADME, organism-based
Condition label: in vivo
Experimental readout: half-life
Kindly report the value followed by its unit.

Exercise: Item under review: CNC(=O)C(N)c1ccc(C(=O)Nc2cc(-c3cccs3)ccc2N)cc1 (stereo unspecified) . Reported half-life?
Key: 5.9 h

----------
Assay method text: Clearance in rhesus monkey at 0.5 mg/kg, iv and 1 mg/kg, po
Format: ADME, organism-based, Macaca mulatta
Condition label: in vivo
Experimental readout: clearance (mL/min/kg)
Just the number please, in mL/min/kg, no unit attached.

Exercise: What does the record list as clearance for CNC(=O)C(N)c1ccc(C(=O)Nc2cc(-c3cccs3)ccc2N)cc1 (stereo unspecified) ?
Key: 16

----------
Assay method text: Bioavailability in rat at 4 mg/kg, po
Assay type: ADME, organism-based
Condition label: in vivo
Experimental readout: bioavailability (%)
State just the number; it will be interpreted in %.

Exercise: Sample CNC(=O)C(N)c1ccc(C(=O)Nc2cc(-c3cccs3)ccc2N)cc1 (stereo unspecified) — what was its bioavailability?
Key: 27

----------
Assay method text: Drug level in HCT116 cells xenografted mouse plasma at ip qd after 4 hrs on day 21
Experimental readout: concentration at 4 h (µM)
# number only, unit µM dropped from output

Exercise: Any idea what concentration at 4 h was measured for CNC(=O)C(N)c1ccc(C(=O)Nc2cc(-c3cccs3)ccc2N)cc1 (stereo unspecified) ?
Key: 4.1

----------
Assay method text: Clearance in dog at 0.5 mg/kg, iv and 1 mg/kg, po
Type: ADME, organism-based, Canis lupus familiaris
Condition label: in vivo
Experimental readout: clearance (mL/min/kg)
The answer is to be given in mL/min/kg; state only the numeric part.

Exercise: GET /values?readout=clearance&item= CNC(=O)C(N)c1ccc(C(=O)Nc2cc(-c3cccs3)ccc2N)cc1 (stereo unspecified)
Key: 11

----------
Assay method text: Bioavailability in rhesus monkey at 1 mg/kg, po
Assay type: ADME, organism-based, Macaca mulatta
Condition label: in vivo
Experimental readout: bioavailability

Exercise: Look at this compound and give its reported bioavailability. CNC(=O)C(N)c1ccc(C(=O)Nc2cc(-c3cccs3)ccc2N)cc1 (stereo unspecified)
Key: 5%

----------
Below, each entry is listed with its recorded solubility.
Assay method text: Aqueous solubility at pH 7 by HPLC
Assay type: physicochemical
Condition label: buffer
Field: numeric (µM). Do not append units.

>>> df
                                   molecule  display_unit  numeric_result
0  NC(=O)C(N)c1ccc(C(=O)Nc2cc(-c3cccs3)ccc2N)cc1 (configuration not stated)            µM             185

Exercise: Item under review: CNC(=O)C(N)c1ccc(C(=O)Nc2cc(-c3cccs3)ccc2N)cc1 (configuration not stated) . Reported solubility?
Key: 185

----------
Assay method text: Drug level in HCT116 cells xenografted mouse plasma at 65 mg/kg, ip qd after 2 hrs on day 21
Assay type: ADME, organism-based, HCT-116
Set-up: dose 65 mg/kg, route intraperitoneal
Experimental readout: concentration at 2 h (µM)
Please reply with the bare figure in µM and do not write the unit itself.

Exercise: Using the record for CNC(=O)C(N)c1ccc(C(=O)Nc2cc(-c3cccs3)ccc2N)cc1 (stereo unspecified) , report its concentration at 2 h.
Key: 28.6

----------
Assay method text: Half life in rhesus monkey at 0.5 mg/kg, iv and 1 mg/kg, po
Type: ADME, organism-based, Macaca mulatta
Condition label: in vivo
Experimental readout: half-life (h)
Output spec: scalar in h, unitless text.

Exercise: Given the molecule CNC(=O)C(N)c1ccc(C(=O)Nc2cc(-c3cccs3)ccc2N)cc1 (stereo unspecified) , what is its reported half-life?
Key: 1.6

----------
Assay method text: Drug level in HCT116 cells xenografted mouse plasma at ip qd after 24 hrs on day 21
Experimental readout: concentration at 24 h (nM)
Just the number in nM, nothing appended.

Exercise: Report concentration at 24 h for CNC(=O)C(N)c1ccc(C(=O)Nc2cc(-c3cccs3)ccc2N)cc1 (stereo unspecified) please.
Key: 10

----------
Assay method text: Volume of distribution at steady state in dog at 0.5 mg/kg, iv and 1 mg/kg, po
Assay type: ADME, organism-based, Canis lupus familiaris
Condition label: in vivo, read-out: Vdss
Experimental readout: Vd (L/kg)
Form entry: value (L/kg) — number only.

Exercise: Recorded Vd of CNC(=O)C(N)c1ccc(C(=O)Nc2cc(-c3cccs3)ccc2N)cc1 (stereo unspecified) , please.
Key: 3.2

----------
Assay method text: Volume of distribution at steady state in rhesus monkey at 0.5 mg/kg, iv and 1 mg/kg, po
Assay type: ADME, organism-based, Macaca mulatta
Condition label: in vivo, read-out: Vdss
Experimental readout: Vd (L/kg)
I only need the number, in L/kg, no unit after it.

Exercise: What value of measured Vd is listed for CNC(=O)C(N)c1ccc(C(=O)Nc2cc(-c3cccs3)ccc2N)cc1 (stereo unspecified) ?
Key: 1.6
